Hello, the source for this data is patent US10544103B2, in case you need it.

Measured inhibition at 0.1 µM by item
# tested on: 5-HT2B receptor (Homo sapiens)
# Construct: host or cells: CHO-K1
# method summary: 5-HT2B receptor binding, 3H-LSD ligand displacement assay
# details: 0.1 uM compound
attribute measured: inhibition at 0.1 µM (%)

molecule="N=C(N)N1CCC(c2ccc3ccccc3c2)=N1 [Example 12, reference compound]" result=18
molecule="CC1CN(C(=N)NCC(F)(F)F)N=C1c1ccccc1O (centres unmarked) [Example 95]" result=96
molecule="COc1cc(C(F)(F)F)ccc1C1=NN(C(=N)N)CC1C (centres unmarked) [Example 68]" result=32
molecule="COc1c(F)cccc1C1=NN(C(=N)N)CC1C (centres unmarked) [Example 47]" result=68
molecule="C[C@@H]1CN(C(=N)N)N=C1c1cccc(Cl)c1O (single isomer, unassigned) [Example 73]" result=99
molecule="CC1CN(C(=N)N)N=C1c1cccc(Cl)c1O (centres unmarked) [Example 54]" result=95
molecule="CCCCCCNC(=N)N1CC(C)C(c2cccc(Cl)c2O)=N1 (centres unmarked) [Example 81]" result=97
molecule="N=C(N)N1CCC(c2c(O)cccc2Cl)=N1 [Example 34]" result=23

====

Measured inhibition at 0.01 µM by item
# tested on: 5-HT2B receptor (Homo sapiens)
# Construct: host or cells: CHO-K1
# method summary: 5-HT2B receptor binding, 3H-LSD ligand displacement assay
# details: 0.01 uM compound
attribute measured: inhibition at 0.01 µM (%)

compound="CC1CN(C(=N)NCCc2ccccc2)N=C1c1ccccc1O (stereo not drawn)" result=89
compound="CCOC(=O)NC(=N)N1CC(C)C(c2cccc(Cl)c2OC(=O)OCC)=N1 (stereo not drawn)" result=0
compound="COc1cc(F)ccc1C1=NN(C(=N)N)CC1C (stereo not drawn)" result=11
compound="COc1c(Cl)cccc1C1=NN(C(=N)NC2CCCCC2)CC1C (stereo not drawn)" result=63
compound="C[C@@H]1CN(C(=N)N)N=C1c1cccc(Cl)c1O (single isomer, unassigned)" result=83
compound="C[C@H]1CN(C(=N)N)N=C1c1ccccc1O (single isomer, unassigned)" result=-1

====

# tested on: 5-HT2B receptor (Homo sapiens, UniProt P41595)
# Construct: host or cells: CHO-K1
# Sequence (P41595 whole entry): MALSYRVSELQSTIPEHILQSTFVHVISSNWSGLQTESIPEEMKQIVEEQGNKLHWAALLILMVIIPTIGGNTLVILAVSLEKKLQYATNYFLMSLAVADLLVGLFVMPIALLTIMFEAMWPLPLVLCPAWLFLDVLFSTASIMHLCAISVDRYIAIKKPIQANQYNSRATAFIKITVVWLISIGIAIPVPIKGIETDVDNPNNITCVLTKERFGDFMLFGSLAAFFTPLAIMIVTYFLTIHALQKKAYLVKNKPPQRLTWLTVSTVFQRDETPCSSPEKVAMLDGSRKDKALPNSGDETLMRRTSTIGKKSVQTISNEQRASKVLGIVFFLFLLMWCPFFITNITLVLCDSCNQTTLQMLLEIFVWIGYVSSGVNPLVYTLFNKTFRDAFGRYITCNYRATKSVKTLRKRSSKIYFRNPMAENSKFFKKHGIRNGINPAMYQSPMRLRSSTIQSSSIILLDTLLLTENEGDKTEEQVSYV
# method summary: 5-HT2B receptor binding, 3H-LSD ligand displacement assay
# details: 0.1 uM compound
attribute measured: inhibition at 0.1 µM (%)

compound="C[C@H]1CN(C(=N)N)N=C1c1ccccc1O (single isomer, unassigned)" result=35
compound="CC1CN(C(=N)N)N=C1c1cccc(F)c1O (stereo not drawn)" result=85
compound="CCCCCCCCCCCCNC(=N)N1CC(C)C(c2cccc(Cl)c2O)=N1 (stereo not drawn)" result=82
compound="CC1CN(C(=N)Nc2ccc(F)cc2)N=C1c1ccccc1O (stereo not drawn)" result=102
compound=CC1(C)CN(C(=N)N)N=C1c1ccccc1O result=28
compound="CC1CC(c2ccccc2Cl)=NN1C(=N)N (stereo not drawn)" result=54
compound="COc1c(Cl)cccc1C1=NN(C(=N)Nc2ccc(C(F)(F)F)cc2)CC1C (stereo not drawn)" result=97
compound="COc1ccccc1C1=NN(C(=N)NCC(F)(F)F)CC1C (stereo not drawn)" result=77
compound="CC1CN(C(=N)NCC(F)(F)C(F)(F)C(F)(F)F)N=C1c1ccccc1O (stereo not drawn)" result=98
compound="COc1ccccc1C1=NN(C(=N)Nc2ccc(F)cc2)CC1C (stereo not drawn)" result=78
compound="CC1CN(C(=N)NC2CCCCC2)N=C1c1cccc(Cl)c1O (stereo not drawn)" result=101
compound="COc1c(Cl)cccc1C1=NN(C(=N)N)CC1C (stereo not drawn)" result=87
compound="CC1CN(C(=N)N)N=C1c1cc(F)ccc1O (stereo not drawn)" result=54
compound="C[C@H]1CN(C(=N)N)N=C1c1cccc(Cl)c1O (single isomer, unassigned)" result=69
compound=N=C(N)N1CCC(c2ccccc2F)=N1 result=10
compound="CC1CN(C(=N)N)N=C1c1ccc(C(F)(F)F)cc1O (stereo not drawn)" result=70
compound="CC1CN(C(=N)N)N=C1c1ccnc2ccccc12 (stereo not drawn)" result=20
compound="C[C@@H]1CN(C(=N)N)N=C1c1ccccc1O (single isomer, unassigned)" result=98
compound="COc1ccccc1C1=NN(C(=N)Nc2ccc(C(F)(F)F)cc2)CC1C (stereo not drawn)" result=86
compound="CCC1CC(c2ccccc2Cl)=NN1C(=N)N (stereo not drawn)" result=25
compound="CC1CN(C(=N)NO)N=C1c1ccccc1O (stereo not drawn)" result=85
compound=CC(C)c1ccccc1C1=NN(C(=N)N)CC1 result=80
compound="COc1cc(F)ccc1C1=NN(C(=N)N)CC1C (stereo not drawn)" result=28
compound="CCOC(=O)NC(=N)N1CC(C)C(c2cccc(Cl)c2O)=N1 (stereo not drawn)" result=89
compound="CC1CC(c2c(F)cccc2F)=NN1C(=N)N (stereo not drawn)" result=7
compound="COc1c(Cl)cccc1C1=NN(C(=N)Nc2ccc(F)cc2)CC1C (stereo not drawn)" result=101
compound="CCCCCCCCCCCCNC(=N)N1CC(C)C(c2cccc(Cl)c2OC)=N1 (stereo not drawn)" result=51
compound="CC1CN(C(=N)N)N=C1c1ccccc1O.Cl (stereo not drawn)" result=91
compound="COc1c(Cl)cccc1C1=NN(C(=N)NCC(F)(F)C(F)(F)C(F)(F)F)CC1C (stereo not drawn)" result=93
compound="Cc1c(C2=NN(C(=N)N)C(C)C2)sc2ccccc12 (stereo not drawn)" result=69
compound="CC1CN(C(=N)Nc2ccccc2)N=C1c1ccccc1O (stereo not drawn)" result=105
compound="COc1ccccc1C1=NN(C(=N)Nc2ccc(Cl)cc2)CC1C (stereo not drawn)" result=92
compound="CC1CN(C(=N)Nc2ccccc2)N=C1c1cccc(Cl)c1O (stereo not drawn)" result=97
